- EXPERIMENTAL_TARGET: acetylcholine receptor (Homo sapiens, UniProt P02708)
- Sequence (P02708 21-457): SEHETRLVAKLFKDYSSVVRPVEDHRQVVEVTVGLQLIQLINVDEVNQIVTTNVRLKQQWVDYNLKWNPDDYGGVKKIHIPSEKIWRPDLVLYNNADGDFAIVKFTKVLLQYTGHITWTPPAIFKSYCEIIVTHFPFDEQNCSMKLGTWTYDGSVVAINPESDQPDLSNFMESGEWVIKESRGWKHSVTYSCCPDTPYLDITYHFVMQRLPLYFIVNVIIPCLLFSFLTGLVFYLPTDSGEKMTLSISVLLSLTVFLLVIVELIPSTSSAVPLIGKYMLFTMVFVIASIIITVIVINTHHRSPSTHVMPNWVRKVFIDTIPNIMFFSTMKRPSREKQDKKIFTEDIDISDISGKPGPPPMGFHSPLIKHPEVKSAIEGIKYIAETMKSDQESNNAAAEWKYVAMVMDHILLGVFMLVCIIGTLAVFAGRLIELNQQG
- PROCEDURE_SUMMARY: SPR binding affinity (RU) of optimized 5mer/6mer/7mer peptides, Examples 6-7
- COND: SPR, peptides tested at 10 μM; 6mer-1 Top sequence (top combinations)
Listing: Binding affinity of selected substances
Response body: numeric value in Ru, unit text excluded.

// worked examples, Binding affinity included
| SUBSTANCE | MEASURE_UNIT | Binding affinity |
| --- | --- | --- |
| 6mer-1-144 (RKRYTR) | Ru | 148 |
| 6mer-1-95 (KKWQTK) | Ru | 142 |
| 6mer-1-181 (KKGVLR) | Ru | 148 |

Query substance follows.
Please fill in: Binding affinity reported for 6mer-1-42 (KKRIQR) = 139

====

- EXPERIMENTAL_TARGET: acetylcholine receptor (Homo sapiens)
- PROCEDURE_SUMMARY: SPR binding affinity (RU) of optimized 5mer/6mer/7mer peptides, Examples 6-7
- COND: SPR, Resonance Units; peptides tested at 10 μM; 6mer-2 Top sequence (Table 12)
Listing: Binding affinity of selected substances
Response body: numeric value in Ru, unit text excluded.

// worked examples, Binding affinity included
| SUBSTANCE | Binding affinity (Ru) |
| --- | --- |
| 6mer-2-317 (RGLYKR) | 135 |
| 6mer-2-371 (KRLSRR) | 148 |
| 6mer-2-235 (KLVRKK) | 136 |
| 6mer-2-223 (KQLTRR) | 142 |
| 6mer-2-378 (KRFQRK) | 131 |

Query substance follows.
Please fill in: Binding affinity reported for 6mer-2-356 (RLLQRR) = 145

====

- EXPERIMENTAL_TARGET: acetylcholine receptor (Homo sapiens, UniProt P02708)
- PROCEDURE_SUMMARY: SPR binding affinity (RU) of optimized 5mer/6mer/7mer peptides, Examples 6-7
- COND: SPR, peptides tested at 10 μM; 6mer-1 Top sequence (top combinations)
Listing: Binding affinity of selected substances
Response body: numeric value in Ru, unit text excluded.

// worked examples, Binding affinity included
| SUBSTANCE | Binding affinity, Ru |
| --- | --- |
| 6mer-1-171 (RKQFQK) | 123 |
| 6mer-1-162 (KKSLSK) | 142 |
| 6mer-1-1 (KKVISK) | 122 |
| 6mer-1-174 (KKGVCR) | 154 |
| 6mer-1-23 (KRSVSR) | 153 |
| 6mer-1-147 (KKQIQR) | 125 |
| 6mer-1-120 (RRRYSR) | 124 |
| 6mer-1-46 (KRLYQR) | 142 |

Query substance follows.
Please fill in: Binding affinity reported for 6mer-1-63 (KKWVSR) = 148

====

- EXPERIMENTAL_TARGET: acetylcholine receptor (Homo sapiens, UniProt P02708)
- PROCEDURE_SUMMARY: SPR binding affinity (RU) of optimized 5mer/6mer/7mer peptides, Examples 6-7
- COND: SPR, Resonance Units; peptides tested at 10 μM; 6mer-2 Bottom sequence
TEST_READOUT: Binding affinity (Ru)
Response body: numeric value in Ru, unit text excluded.

| SUBSTANCE | EXPERIMENTAL_TARGET | Binding affinity / Ru |
| --- | --- | --- |
| 6mer-2-626 (KNSEKK) | acetylcholine receptor (Homo sapiens, UniProt P02708) | 33 |
| 6mer-2-742 (KNNWRR) | acetylcholine receptor (Homo sapiens, UniProt P02708) | 32 |
| 6mer-2-941 (RDEDKR) | acetylcholine receptor (Homo sapiens, UniProt P02708) | 33 |

The observed Binding affinity for 6mer-2-779 (KAAHRR) when tested with acetylcholine receptor (Homo sapiens, UniProt P02708) stands at 13

The observed Binding affinity for 6mer-2-796 (RMMARR) when tested with acetylcholine receptor (Homo sapiens, UniProt P02708) stands at 32

The observed Binding affinity for 6mer-2-872 (KTHFRK) when tested with acetylcholine receptor (Homo sapiens, UniProt P02708) stands at 28

The observed Binding affinity for 6mer-2-931 (RYCFKR) when tested with acetylcholine receptor (Homo sapiens, UniProt P02708) stands at 29

The observed Binding affinity for 6mer-2-628 (RKSFKR) when tested with acetylcholine receptor (Homo sapiens, UniProt P02708) stands at 30
